The measurements presented in this section are drawn from paper PMC3578765.

experimental.details: in vitro
assay.context: human
recorded.metric: CC50 (µM)
Return type: number; implicit unit µM.

Data point: NC(=O)c1ncn([C@@H]2O[C@H](CO)[C@@H](O)[C@H]2O)n1 ; CC50 = 50.4
